Assay: NCI Yeast Anticancer Drug Screen. Data for the mgt1 strain (AID 153)
Conditions: S. cerevisiae mgt1 mutant growth inhibition; at 11.0 µM; hits give high values
This is part of a sample that, as a whole, favours compounds with a hit. Of some 79,000 tested, about 15% had one in any assay.
Here the recorded growth inhibition is given for each entry.

{"MOLECULE": "CCOC(=O)[C@H]1Nc2ccccc2C2c3ccccc3CC21 (some centres not stated)", "growth inhibition / %": 53}
{"MOLECULE": "COC1C=COC2(C)Oc3c(C)c(O)c4c(c3C2=O)/C(=N/C2CCC(O)OC2C)C=C(NC(=O)/C(C)=C\\C(=O)C2CC2C(O)C(C)C(O)C(C)C(OC(C)=O)C1C)C4=O (configuration not stated)", "growth inhibition / %": -1}
{"MOLECULE": "S=C(Nc1ccc(Cl)cc1)SC1CCCCC1", "growth inhibition / %": 33}
{"MOLECULE": "O=C(NCCCNCCCNC(=O)c1cc(-c2ccccc2)nc2ccccc12)c1cc(-c2ccccc2)nc2ccccc12", "growth inhibition / %": -3}
{"MOLECULE": "COc1ccc2ccc3ccccc3c2c1C=O", "growth inhibition / %": -7}
{"MOLECULE": "[N-]=N[N+]#I1OC(C(F)(F)F)(C(F)(F)F)c2ccccc21", "growth inhibition / %": 99}
{"MOLECULE": "CC[n+]1ccc2c(C)c3[nH]c4ccc(O)cc4c3c(C)c2c1", "growth inhibition / %": -16}
{"MOLECULE": "CCC#CCCCOC(=O)c1cc([N+](=O)[O-])cc([N+](=O)[O-])c1", "growth inhibition / %": -4}
{"MOLECULE": "CN(C)C[C@H]1CC[C@@H](CN(C)C)C1=O", "growth inhibition / %": 25}
{"MOLECULE": "Cc1cc(I)ccc1N", "growth inhibition / %": 28}
{"MOLECULE": "O=C1C2C(C(=O)N1c1ccc(OCc3ccccc3)cc1)C1c3ccccc3C2C2CCCCN21 (configuration not stated)", "growth inhibition / %": -11}
{"MOLECULE": "O=C(Nc1ccc(Cl)cc1)OCC#CCCl", "growth inhibition / %": 98}
{"MOLECULE": "COc1cc(/C=C2\\CCc3ccccc3C2=O)cc(OC)c1OC", "growth inhibition / %": -45}
{"MOLECULE": "C[C@H](CCC(=O)NN)[C@H]1CC[C@H]2[C@@H]3CC[C@@H]4C[C@H](O)CC[C@]4(C)[C@H]3CC[C@]12C", "growth inhibition / %": 1}
{"MOLECULE": "Cc1ccc(S(=O)(=O)NCCSS(=O)(=O)c2ccc(C)cc2)cc1", "growth inhibition / %": 3}
{"MOLECULE": "O=C(O)C1CCCCC1c1c2ccc(=O)c(O)c-2oc2c(O)c(O)ccc12 (configuration not stated)", "growth inhibition / %": 15}
{"MOLECULE": "COc1cc(C2c3cc4c(cc3OC(NNc3ccccc3)C2C)OCO4)cc(OC)c1OC (configuration not stated)", "growth inhibition / %": 26}

* * *

Quick list: growth inhibition per entry.
Test: NCI Yeast Anticancer Drug Screen. Data for the CLN2oe strain (AID 163);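 note: 0% = growth of vehicle-only control cultures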
Settings: S. cerevisiae CLN2oe strain, at 3.7 µM, hits give high values
Compounds without any hit were thinned out: in the full panel of roughly 79,000, 15% have a hit.
PROPERTY_LABEL: growth inhibition (%)

{"COMPOUND": "Cc1ccc(S/N=C\\c2ccccc2O)cc1", "PROPERTY_LABEL": "growth inhibition", "REPORTED_MEASUREMENT": 1}
{"COMPOUND": "N#C/C(=C\\c1cccc(OCc2ccccc2)c1)c1ccc([N+](=O)[O-])cc1", "PROPERTY_LABEL": "growth inhibition", "REPORTED_MEASUREMENT": -17}
{"COMPOUND": "O=[N+]([O-])c1ccc(=S)[nH]c1", "PROPERTY_LABEL": "growth inhibition", "REPORTED_MEASUREMENT": -8}
{"COMPOUND": "CCC(=O)OCCn1c2nc(=O)[nH]c(=O)c-2nc2cc(C)c(C)cc21", "PROPERTY_LABEL": "growth inhibition", "REPORTED_MEASUREMENT": -5}
{"COMPOUND": "O=C(NCCCCCCCN1CCCCCCC1)C(C1CCCCC1)C1CCCCC1", "PROPERTY_LABEL": "growth inhibition", "REPORTED_MEASUREMENT": 65}
{"COMPOUND": "CC(/C=C/c1ccc2c(c1)OCO2)[N+](=O)[O-] (centres undefined)", "PROPERTY_LABEL": "growth inhibition", "REPORTED_MEASUREMENT": 37}
{"COMPOUND": "COc1ccc(-c2cn(-c3ccc(I)cc3)c3ncnc(N)c23)cc1", "PROPERTY_LABEL": "growth inhibition", "REPORTED_MEASUREMENT": -8}
{"COMPOUND": "COc1ccc(Br)c(C(=O)Sc2nnnn2-c2cccc(Cl)c2)c1", "PROPERTY_LABEL": "growth inhibition", "REPORTED_MEASUREMENT": 3}
{"COMPOUND": "Cn1c2ccccc2c(=O)c2cc(NC(=O)CCCCC(=O)Nc3ccc4c(c3)c(=O)c3ccccc3n4C)ccc21", "PROPERTY_LABEL": "growth inhibition", "REPORTED_MEASUREMENT": -4}

* * *

growth inhibition reference
Assay: NCI Yeast Anticancer Drug Screen. Data for the wt2 strain (AID 169);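 note: 0% = growth of vehicle-treated yeast cultures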
Conditions: S. cerevisiae wt2 strain growth inhibition; at 33.0 µM; hits give high values
About 79,000 compounds went through this panel and 15% of them were active in at least one assay; those are over-represented in the sample as a whole. Calls of active or inactive are those of the source. Rule as the data show it: active = growth inhibition above about 70%; inactive = the rest.
PROPERTY_LABEL: growth inhibition

{"COMPOUND": "CCCCCCCCCCCC(=O)N(C)C", "PROPERTY_LABEL": "growth inhibition", "REPORTED_MEASUREMENT": "29% (inactive)"}
{"COMPOUND": "CC(/C=C/c1ccc(Cl)cc1)=N\\NC(=S)NCC(C)C", "PROPERTY_LABEL": "growth inhibition", "REPORTED_MEASUREMENT": "-2% (inactive)"}
{"COMPOUND": "COC(=O)CSSCc1ccc([N+](=O)[O-])cc1", "PROPERTY_LABEL": "growth inhibition", "REPORTED_MEASUREMENT": "34% (inactive)"}
{"COMPOUND": "CCCCCCCC1(N=[N+]=[N-])C(=O)c2ccccc2N(C)C1=O (centres undefined)", "PROPERTY_LABEL": "growth inhibition", "REPORTED_MEASUREMENT": "57% (inactive)"}
{"COMPOUND": "NNC(=O)CCc1ccc2ccc3ccccc3c2c1", "PROPERTY_LABEL": "growth inhibition", "REPORTED_MEASUREMENT": "6% (inactive)"}
{"COMPOUND": "CCCCCCCCCCCCCC[N+](C)(CC(=O)[O-])Cc1ccccc1 (centres undefined)", "PROPERTY_LABEL": "growth inhibition", "REPORTED_MEASUREMENT": "60% (inactive)"}
{"COMPOUND": "CN(C)c1ccc(C(C#N)=C(C#N)C#N)cc1", "PROPERTY_LABEL": "growth inhibition", "REPORTED_MEASUREMENT": "0% (inactive)"}
{"COMPOUND": "CCOP(=O)(OCC)C(Cc1ccccc1)N=C(c1ccccc1)c1ccccc1 (centres undefined)", "PROPERTY_LABEL": "growth inhibition", "REPORTED_MEASUREMENT": "97% (active)"}
{"COMPOUND": "O=CC=C(c1ccccc1)c1ccccc1", "PROPERTY_LABEL": "growth inhibition", "REPORTED_MEASUREMENT": "22% (inactive)"}

* * *

Assay: NCI Yeast Anticancer Drug Screen. Data for the rad14 strain (AID 159);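 note: 0% = growth of vehicle-treated control cultures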
Details: S. cerevisiae rad14 strain growth inhibition; at 100.0 µM
Description: Growth inhibition of yeast strains with defined genetic alterations is measured as a screen for potential anti-cancer activity. Selected strains with alterations in DNA damage repair or cell cycle control were exposed to compounds and growth inhibition was measured relative to vehicle treated controls. The strain used in this assay is rad14
About 79,000 compounds went through this panel and 15% of them were active in at least one assay; those are over-represented in the sample as a whole. Calls of active or inactive are those of the source. Rule as the data show it: active = growth inhibition above about 70%; inactive = the rest.
Outcome codes: yes (1) = active, no (0) = inactive

{"COMPOUND": "Fc1ccc(NC(=S)SCc2ccc(Cl)c(Cl)c2)cc1F", "QUALITATIVE_LABEL": "yes (1)"}
{"COMPOUND": "CCCCCCCCCCCCCCCCCCNC", "QUALITATIVE_LABEL": "yes (1)"}
{"COMPOUND": "Cc1ccc2ccc3cccc4ccc1c2c34", "QUALITATIVE_LABEL": "no (0)"}
{"COMPOUND": "CCN(CC)CCNc1ccc([N+](=O)[O-])c2nc3ccc(OC)cc3c(N)c12", "QUALITATIVE_LABEL": "yes (1)"}
{"COMPOUND": "O=C1OC(CCl)CN1/N=C/c1ccc([N+](=O)[O-])o1 (stereo unspecified)", "QUALITATIVE_LABEL": "yes (1)"}
{"COMPOUND": "O=C(O)c1ccccc1-c1ccccc1C(=O)Nc1ccc2c(c1)Cc1ccccc1-2", "QUALITATIVE_LABEL": "yes (1)"}
{"COMPOUND": "Cc1c(C2=C(Br)C(=O)N(C)C2=O)c(=O)n(C)c(=O)n1C", "QUALITATIVE_LABEL": "yes (1)"}
{"COMPOUND": "CC1CCN(CCC(=O)c2ccc(Cl)cc2)CC1", "QUALITATIVE_LABEL": "no (0)"}
{"COMPOUND": "CCCC/C=C/C(CC)(C(=O)OCC)C(=O)OCC", "QUALITATIVE_LABEL": "no (0)"}
{"COMPOUND": "O=C(CCCN1CCC2(CC1)CC(=O)N(N1CCCCCC1)C2=O)c1ccc(F)cc1", "QUALITATIVE_LABEL": "yes (1)"}
{"COMPOUND": "COc1ccc(/C(C)=N/OC(=O)c2c(-c3ccccc3Cl)noc2C)cc1CN1CCOCC1", "QUALITATIVE_LABEL": "yes (1)"}
